Ref: ChEMBL document CHEMBL1933047

molecular target: Poly [ADP-ribose] polymerase 1 (Rattus norvegicus); assay: Inhibition of PARP1 in rat PC12 cells assessed as NAD+ recovery at 1 uM pre-treated for 1 hr before hydrogen peroxide addition followed by washout and compound treated again for 1 hr relative to control; format: cell-based; settings: PC-12
// values below are reported inhibition
Note: unit % is implicit; provide only the numeric part.

>>> test_result("O=C(CN1CCCCC1)c1ccc2[nH]c3c4c(c5c(c3c2c1)C(=O)NC5=O)CCC4")
14
>>> test_result("O=C1CCC(c2ccc3[nH]c4c5c(c6c(c4c3c2)C(=O)NC6=O)CCC5)=NN1")
29
>>> test_result("COC(=O)[C@@H]1CCCN1CC(=O)c1ccc2[nH]c3c4c(c5c(c3c2c1)C(=O)NC5=O)CCC4")
27

inhibition measured on `O=C(CCC(=O)N1CCOCC1)c1ccc2[nH]c3c4c(c5c(c3c2c1)C(=O)NC5=O)CCC4` = 38
